# Tested on: cancer cell lines from the cancer cell line encyclopedia (CCLE)
# ASSAY_TEXT: Cell line profiling (CLiP) proliferation experiment
# Type: cell-based
# EXPERIMENTAL_CONDITIONS: Homo sapiens, MDA-MB-436, MDA-MB-436 (breast); read-out: Crossing Point
pIC50: −log10 of the molar value.
PARAMETER_MEASURED: pIC50

Please state recorded pIC50 (tested on cancer cell lines from the cancer cell line encyclopedia (CCLE)) of CC(C)[C@@]12C[C@@H](O)[C@@](C)(O1)[C@@H]1CC[C@@H](C)[C@H]1[C@@H]2OC(=O)/C=C/c1ccccc1 [Englerin B]
< 4.52

* * *

# Test system: cancer cell lines from the cancer cell line encyclopedia (CCLE)
# ASSAY_TEXT: Cell line profiling (CLiP) proliferation experiment
# Type: cell-based
# EXPERIMENTAL_CONDITIONS: Homo sapiens, MCF7, MCF7 cells; read-out: Crossing Point
PARAMETER_MEASURED: IC50 (µM)
Answers are plain numbers, in µM.

Requested read-out: IC50. Entry: CC(C)[C@@]12C[C@@H](O)[C@@](C)(O1)[C@@H]1CC[C@@H](C)[C@H]1[C@@H]2OC(=O)/C=C/c1ccccc1 [Englerin B]
13.7

* * *

# System: cancer cell lines from the cancer cell line encyclopedia (CCLE)
# ASSAY_TEXT: Cell line profiling (CLiP) proliferation experiment
# Type: cell-based
# EXPERIMENTAL_CONDITIONS: cell line BHY; upper_aerodigestive_tract; squamous_cell_carcinoma; read-out: Inflection Point
PARAMETER_MEASURED: pEC50
Give bare numbers, as −log10 of the molar value.

Suppose we examine the compound CC(C)[C@@]12C[C@@H](O)[C@@](C)(O1)[C@@H]1CC[C@@H](C)[C@H]1[C@@H]2OC(=O)/C=C/c1ccccc1 [Englerin B] ; what pEC50 value has been reported?
5.03

* * *

# System: cancer cell lines from the cancer cell line encyclopedia (CCLE)
# ASSAY_TEXT: Cell line profiling (CLiP) proliferation experiment
# Type: cell-based
# EXPERIMENTAL_CONDITIONS: Homo sapiens, MOLP-8, cell line MOLP-8 (haematopoietic_and_lymphoid_tissue); read-out: Inflection Point
PARAMETER_MEASURED: EC50 (µM)
Numbers only, in µM.

Which EC50 is reported for this molecule? "CC(C)[C@@]12C[C@@H](O)[C@@](C)(O1)[C@@H]1CC[C@@H](C)[C@H]1[C@@H]2OC(=O)/C=C/c1ccccc1"
12.1

* * *

# Tested on: cancer cell lines from the cancer cell line encyclopedia (CCLE)
# ASSAY_TEXT: Cell line profiling (CLiP) proliferation experiment
# Assay type: cell-based
# EXPERIMENTAL_CONDITIONS: Homo sapiens, SU-DHL-5, SU-DHL-5 (haematopoietic_and_lymphoid_tissue, diffuse_large_B_cell_lymphoma); read-out: Inflection Point
PARAMETER_MEASURED: EC50 (µM)
Numbers only, in µM.

# get_value(readout='EC50', item= "CC(C)[C@@]12C[C@@H](O)[C@@](C)(O1)[C@@H]1CC[C@@H](C)[C@H]1[C@@H]2OC(=O)/C=C/c1ccccc1" )
14.7

* * *

# Tested on: cancer cell lines from the cancer cell line encyclopedia (CCLE)
# ASSAY_TEXT: Cell line profiling (CLiP) proliferation experiment
# Type: cell-based
# EXPERIMENTAL_CONDITIONS: Homo sapiens, MeWo, cell line MeWo (skin); read-out: Crossing Point
PARAMETER_MEASURED: pIC50
Answers are plain numbers, as −log10 of the molar value.

What measured pIC50 goes with "CC(C)[C@@]12C[C@@H](O)[C@@](C)(O1)[C@@H]1CC[C@@H](C)[C@H]1[C@@H]2OC(=O)/C=C/c1ccccc1" ?
4.58

* * *

# System: cancer cell lines from the cancer cell line encyclopedia (CCLE)
# ASSAY_TEXT: Cell line profiling (CLiP) proliferation experiment
# Type: cell-based
# EXPERIMENTAL_CONDITIONS: Homo sapiens, SW48, SW48 (large_intestine, adenocarcinoma); read-out: Inflection Point
PARAMETER_MEASURED: EC50

# query: EC50 of entry "CC(C)[C@@]12C[C@@H](O)[C@@](C)(O1)[C@@H]1CC[C@@H](C)[C@H]1[C@@H]2OC(=O)/C=C/c1ccccc1"
29 µM

* * *

# System: cancer cell lines from the cancer cell line encyclopedia (CCLE)
# ASSAY_TEXT: Cell line profiling (CLiP) proliferation experiment
# Format: cell-based
# EXPERIMENTAL_CONDITIONS: NCI-H1781, cell line NCI-H1781 (lung); read-out: Crossing Point
# Experimental: Compound profiling experiment and data analysis was performed as previously described. Data was imported and plotted using the Tibco Spotfire DXP application. Lines were categorized as sensitive, intermediate and refractory as follows: Amax<-40 & Inflection Point <2 ~ Sensitive, Amax>-20 & Inflection Point >10 ~ Refractory, all else were called Intermediate. Cancer Cell line HG-U133 Plus 2 data was processed and normalized as described. […]
PARAMETER_MEASURED: pIC50
Give bare numbers, as −log10 of the molar value.

Data request, read-out pIC50, for CC(C)[C@@]12C[C@@H](O)[C@@](C)(O1)[C@@H]1CC[C@@H](C)[C@H]1[C@@H]2OC(=O)/C=C/c1ccccc1 [Englerin B]
4.95

* * *

# Tested on: cancer cell lines from the cancer cell line encyclopedia (CCLE)
# ASSAY_TEXT: Cell line profiling (CLiP) proliferation experiment
# Type: cell-based
# EXPERIMENTAL_CONDITIONS: Homo sapiens, DMS-114, DMS 114, lung, small_cell_carcinoma; read-out: Inflection Point
PARAMETER_MEASURED: EC50 (µM)
Answers are plain numbers, in µM.

Name the reported EC50 value associated with the compound "CC(C)[C@@]12C[C@@H](O)[C@@](C)(O1)[C@@H]1CC[C@@H](C)[C@H]1[C@@H]2OC(=O)/C=C/c1ccccc1"
11.7

* * *

# System: cancer cell lines from the cancer cell line encyclopedia (CCLE)
# ASSAY_TEXT: Cell line profiling (CLiP) proliferation experiment
# Assay type: cell-based
# EXPERIMENTAL_CONDITIONS: Homo sapiens, CAL-51, CAL-51 cells; read-out: Crossing Point
PARAMETER_MEASURED: IC50

Give cancer cell lines from the cancer cell line encyclopedia (CCLE) IC50 for CC(C)[C@@]12C[C@@H](O)[C@@](C)(O1)[C@@H]1CC[C@@H](C)[C@H]1[C@@H]2OC(=O)/C=C/c1ccccc1 [Englerin B]
> 30 µM

* * *

# Tested on: cancer cell lines from the cancer cell line encyclopedia (CCLE)
# ASSAY_TEXT: Cell line profiling (CLiP) proliferation experiment
# Type: cell-based
# EXPERIMENTAL_CONDITIONS: OMM2.3 (eye); read-out: Crossing Point
pIC50: −log10 of the molar value.
PARAMETER_MEASURED: pIC50

Which pIC50 reading was recorded for the compound "CC(C)[C@@]12C[C@@H](O)[C@@](C)(O1)[C@@H]1CC[C@@H](C)[C@H]1[C@@H]2OC(=O)/C=C/c1ccccc1" ?
< 4.52

* * *

# Tested on: cancer cell lines from the cancer cell line encyclopedia (CCLE)
# ASSAY_TEXT: Cell line profiling (CLiP) proliferation experiment
# Format: cell-based
# EXPERIMENTAL_CONDITIONS: cell line 697; haematopoietic_and_lymphoid_tissue; acute_lymphoblastic_leukaemia; read-out: Crossing Point
PARAMETER_MEASURED: IC50
Please state the value followed by its unit.

Requested read-out: IC50. Entry: CC(C)[C@@]12C[C@@H](O)[C@@](C)(O1)[C@@H]1CC[C@@H](C)[C@H]1[C@@H]2OC(=O)/C=C/c1ccccc1 [Englerin B]
18.6 µM

* * *

# Test system: cancer cell lines from the cancer cell line encyclopedia (CCLE)
# ASSAY_TEXT: Cell line profiling (CLiP) proliferation experiment
# Format: cell-based
# EXPERIMENTAL_CONDITIONS: Homo sapiens, GAMG, cell line GAMG, central_nervous_system; read-out: Crossing Point
PARAMETER_MEASURED: IC50

# lookup: IC50 of CC(C)[C@@]12C[C@@H](O)[C@@](C)(O1)[C@@H]1CC[C@@H](C)[C@H]1[C@@H]2OC(=O)/C=C/c1ccccc1 [Englerin B]
> 30 µM

* * *

# System: cancer cell lines from the cancer cell line encyclopedia (CCLE)
# ASSAY_TEXT: Cell line profiling (CLiP) proliferation experiment
# Type: cell-based
# EXPERIMENTAL_CONDITIONS: KMRC-20 cells; read-out: Inflection Point
# Method: Compound profiling experiment and data analysis was performed as previously described. Data was imported and plotted using the Tibco Spotfire DXP application. Lines were categorized as sensitive, intermediate and refractory as follows: Amax<-40 & Inflection Point <2 ~ Sensitive, Amax>-20 & Inflection Point >10 ~ Refractory, all else were called Intermediate. Cancer Cell line HG-U133 Plus 2 data was processed and normalized as described. […]
PARAMETER_MEASURED: EC50
Write your answer as a measured quantity: the number, then the unit.

Quick check: EC50 of "CC(C)[C@@]12C[C@@H](O)[C@@](C)(O1)[C@@H]1CC[C@@H](C)[C@H]1[C@@H]2OC(=O)/C=C/c1ccccc1" ?
140 nM
